Just for reference, patent US20180057505A1 is where these values come from.

pIC50 values for the molecules below.
Molecular target: PAR2 (HT-29 cells) (Homo sapiens, UniProt P55085)
Construct: host or cells: HT-29
Sequence (P55085 26-397): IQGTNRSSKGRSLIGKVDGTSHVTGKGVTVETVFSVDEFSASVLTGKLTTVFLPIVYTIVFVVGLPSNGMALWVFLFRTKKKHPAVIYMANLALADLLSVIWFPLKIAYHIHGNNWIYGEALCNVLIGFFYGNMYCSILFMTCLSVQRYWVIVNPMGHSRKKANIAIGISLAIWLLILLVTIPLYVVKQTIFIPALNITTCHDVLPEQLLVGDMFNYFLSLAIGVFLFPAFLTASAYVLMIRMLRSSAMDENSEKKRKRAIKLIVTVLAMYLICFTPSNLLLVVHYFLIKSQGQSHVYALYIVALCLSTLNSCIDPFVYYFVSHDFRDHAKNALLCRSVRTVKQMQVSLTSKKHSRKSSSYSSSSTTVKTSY
Assay: Ca FLIPR TETRA assay, ANTAGONIST mode, activator 8 μM SLIGKV
Format: cell-based
Conditions: HT-29 cells; activator 8 μM SLIGKV; Method A: maximal concentration of antagonist 0.1, 1 or 2 μM
Please report pIC50 as the negative decimal logarithm of the molar concentration, giving only the number.

See these solved cases before continuing.
>  <molecule>
Cc1nc(C(=O)O)cnc1C1CCN(C(=O)c2cc3nc(C4CCC(C)(C)CC4)cc(C(C)(C)C)c3o2)C(C)(C)C1 (stereo not drawn)

>  <pIC50>
8.60

$$$$
>  <molecule>
CC(C)(C)c1cc(-c2ccc(Cl)cc2)nc2cc(C(=O)N3CCN(c4cccc(-c5nnn[nH]5)n4)CC3(C)C)oc12

>  <pIC50>
10.10

$$$$

Now consider a different molecule.
Exercise: For CC(C)(C)c1cc(-c2ccc(Cl)c(F)c2)nc2cc(C(=O)N3CCN(c4nccc(C(=O)O)n4)CC3(C)C)oc12 , what is its reported pIC50?
Key: 9.40

###

molecular target: PAR2 (HT-29 cells) (Homo sapiens); construct: host or cells: HT-29; assay: Ca FLIPR TETRA assay, ANTAGONIST mode, activator 3.1 U/mL trypsin; assay type: cell-based; details: HT-29 cells; activator 3.1 U/mL trypsin; Method A: maximal concentration of antagonist 0.1, 1 or 2 μM
parameter: log10 IC50 (log10 of the value in µM)
Scale: decimal log of IC50, IC50 in µM.

// below: answered molecules
>  <molecule>
Cc1cc(C(=O)O)nc(N2CCN(C(=O)c3cc4nc(C5CCC(C)(C)CC5)cc(C(C)(C)C)c4o3)C(C)(C)C2)n1 [Example I-408]

>  <target-system>
PAR2 (HT-29 cells) (Homo sapiens)

>  <number>
-3.00

$$$$
>  <molecule>
CC(C)(C)c1cc(-c2ccc(Cl)c(F)c2)nc2cc(C(=O)N3CCC(=O)NCC3(C)C)oc12 [Example I-335]

>  <target-system>
PAR2 (HT-29 cells) (Homo sapiens)

>  <number>
-1.55

$$$$
>  <molecule>
CC(C)(C)c1cc(-c2ccc(Cl)cc2)nc2cc(C(=O)N3CCN(c4cccnc4)C(=O)C3(C)C)oc12 [Example I-326]

>  <target-system>
PAR2 (HT-29 cells) (Homo sapiens)

>  <number>
-1.42

$$$$
>  <molecule>
CC(C)(C)c1cc(-c2ccc(Cl)c(F)c2)nc2cc(C(=O)N3CCN(C(=O)CCP(C)(=O)O)CC3(C)C)oc12 [Example I-376]

>  <target-system>
PAR2 (HT-29 cells) (Homo sapiens)

>  <number>
-0.54

$$$$
>  <molecule>
Cc1cc(C(=O)N2CCN(C(=O)c3cc4nc(-c5ccc(Cl)c(F)c5)cc(C(C)(C)C)c4o3)C(C)(C)C2)[nH]n1 [Example I-504]

>  <target-system>
PAR2 (HT-29 cells) (Homo sapiens)

>  <number>
-2.77

$$$$
>  <molecule>
Cc1nc(C)c(N2CCN(C(=O)c3cc4nc(-c5ccc(Cl)cc5)cc(C(C)(C)C)c4o3)C(C)(C)C2=O)o1 [Example I-386]

>  <target-system>
PAR2 (HT-29 cells) (Homo sapiens)

>  <number>
-1.40

$$$$

Exercise: Reported log10 IC50, molecule CC1(C)CCC(c2cc(C(C)(C)C)c3oc(C(=O)N4CCN(c5nc(C(=O)O)co5)CC4(C)C)cc3n2)CC1 [Example I-450] : ____
Key: -3.10

###

test: In vivo rat pharmacokinetics experiments; details: plasma, non-compartmental analysis, read-out: T ½ (converted)
parameter: half-life (h)
Quick note: give the figure in h, leave out the unit.

Exercise: Look up half-life: CC(C)(C)c1cc(-c2ccc(Cl)c(F)c2)nc2cc(C(=O)N3CCN(c4cccc(C(=O)O)n4)CC3(C)C)oc12
Key: 5.2

###

target: PAR2 (HT-29 cells) (Homo sapiens); construct: host or cells: HT-29; test: Ca FLIPR TETRA assay, ANTAGONIST mode, activator 8 μM SLIGKV; format: cell-based; conditions: HT-29 cells, activator 8 μM SLIGKV; maximal antagonist concentration per Method (A: 0.1, 1 or 2 μM; B: 50 μM)
parameter: IC50 (nM)
Provide the reading as a plain figure in nM.

>  <molecule>
Cc1ncc(C(=O)N2CCN(C(=O)c3cc4nc(-c5ccc(C(F)(F)F)cc5)cc(C(C)(C)C)c4o3)C(C)(C)C2)[nH]1

>  <IC50 / nM>
6

$$$$

Exercise: Which IC50 is reported for this molecule? CCS(=O)(=O)NCC(=O)N1CCN(C(=O)c2cc3nc(C4CC5(CCC5)C4)cc(C(C)(C)C)c3o2)C(C)(C)C1
Key: 5.4

Exercise: Endpoint output: IC50 of CNS(=O)(=O)CC(=O)N1CCN(C(=O)c2cc3nc(C4CCC(F)(F)CC4)cc(C(C)(C)C)c3o2)C(C)(C)C1=O . Value?
Key: 39

Exercise: Item CC1(C)CCC(c2cc(C(C)(C)C)c3oc(C(=O)N4CCN(C(=O)C5CCC(C(=O)O)O5)CC4(C)C)cc3n2)CC1 (stereo not shown) has what recorded IC50?
Key: 8.5

Exercise: For the molecule shown here, CC(C)(O)C(=O)N1CCN(C(=O)c2cc3nc(-c4ccc(F)cc4)cc(C4(C)CC4)c3o2)C(C)(C)C1 , give the reported IC50.
Key: 19

Exercise: Any idea what IC50 was measured for CC(C)(C)c1cc(-c2ccc(F)cc2)nc2cc(C(=O)N3CCN(C(=O)c4ccn[nH]4)CC3(C)C)oc12 ?
Key: 8.1

Exercise: Look up IC50 for this molecule: CC(C)c1cc(-c2ccc(F)cc2)nc2cc(C(=O)N3CCN(C(=O)C4CCCO4)CC3(C)C)oc12 (stereo not shown)
Key: 23

###

Experiment: In vivo rat pharmacokinetics experiments
Conditions: oral gavage, dose 1 to 600 mg/kg
Description: Example 99: Protocol for Testing PAR2 Compounds In Vivo Rat Pharmacokinetics Experiments […] Rats were bled by venipuncture (jugular vein) and the samples were collected into tubes containing K3EDTA. […] Pharmacokinetic parameters were calculated using non-compartmental analysis.
Overview of reported F across a group of compounds:
Numbers only here, please. The scale is %.

>  <smiles-structure>
CC1(C)CCC(c2cc(C(C)(C)C)c3oc(C(=O)N4CCN(C(=O)[C@H]5CC[C@@](C)(C(=O)O)CC5)CC4(C)C)cc3n2)CC1

>  <parameter>
F

>  <number>
49

$$$$
>  <smiles-structure>
CC(C)(C)c1cc(-c2ccc(Cl)c(F)c2)nc2cc(C(=O)N3CCN(c4ccc(C(=O)O)cn4)CC3(C)C)oc12

>  <parameter>
F

>  <number>
58

$$$$

Exercise: So what's the measured F for this one? Cc1nc(N2CCN(C(=O)c3cc4nc(-c5ccc(Cl)c(F)c5)cc(C(C)(C)C)c4o3)C(C)(C)C2)ccc1C(=O)O
Key: 70

Exercise: Could you share which F value was measured for CC(C)(C)c1cc(-c2ccc(Cl)c(F)c2)nc2cc(C(=O)N3CCN(c4cccc(-c5nnn[nH]5)n4)CC3(C)C)oc12 ?
Key: 24

Exercise: Need F of CC1(C)CCC(c2cc(C(C)(C)C)c3oc(C(=O)N4CCN(c5cccc(C(=O)O)n5)CC4(C)C)cc3n2)CC1 , thanks.
Key: 119

Exercise: What value of F has been reported for the following compound? CC(C)(CCC(=O)N1CCN(C(=O)c2cc3nc(-c4ccc(Cl)c(F)c4)cc(C(C)(C)C)c3o2)C(C)(C)C1)C(=O)O
Key: 2.7

Exercise: Suppose we examine the compound CC(C)(C)c1cc(-c2ccc(Cl)c(F)c2)nc2cc(C(=O)N3CCN(C(=O)CC4(C(=O)O)CCCC4)CC3(C)C)oc12 ; what F value has been reported?
Key: 19

###

molecular target: PAR2 (HT-29 cells) (Homo sapiens, UniProt P55085); construct: host or cells: HT-29; assay: Ca FLIPR TETRA assay, ANTAGONIST mode, activator 8 μM SLIGKV; format: cell-based; conditions: HT-29 cells; activator 8 μM SLIGKV; Method A: maximal concentration of antagonist 0.1, 1 or 2 μM
parameter: IC50 (nM)
Answer format: numeric, nM implied, no suffix.

As a guide, the following entries are already answered.
>  <smiles-structure>
CC(C)(C)c1cc(-c2ccc(Cl)cc2)nc2cc(C(=O)N3CCN(C(=O)[C@@H]4CCS(=O)(=O)N4)CC3(C)C)oc12

>  <IC50 [nM]>
39

$$$$
>  <smiles-structure>
CC(C)(C)c1cc(-c2ccc(Cl)cc2)nc2cc(C(=O)N3CCN(C(=O)[C@@H]4CC[C@H](C(=O)O)C4)CC3(C)C)oc12

>  <IC50 [nM]>
2.3

$$$$
>  <smiles-structure>
CC(C)(C)c1cc(C2CCC(F)(F)CC2)nc2cc(C(=O)N3CCN(C(=O)c4nnc[nH]4)CC3(C)C)oc12

>  <IC50 [nM]>
81

$$$$
>  <smiles-structure>
CC1(C)CCC(c2cc(C(C)(C)C)c3oc(C(=O)N4CCN(C(=O)[C@H]5CC[C@@](C)(C(=O)O)CC5)CC4(C)C)cc3n2)CC1

>  <IC50 [nM]>
0.2

$$$$
>  <smiles-structure>
CC(C)[C@H](CC(=O)N1CCN(C(=O)c2cc3nc(-c4ccc(Cl)c(F)c4)cc(C(C)(C)C)c3o2)C(C)(C)C1)C(=O)O

>  <IC50 [nM]>
0.2

$$$$

Exercise: I would be grateful if you could share the reported IC50 for CC(C)(C)c1cc(-c2ccc(Cl)cc2)nc2cc(C(=O)N3CCN(C(=O)CC4(C(=O)O)CCCC4)CC3(C)C)oc12 .
Key: 0.4

Exercise: So what does the record say about IC50 for CC(C)(C)c1cc(-c2ccc(Cl)c(F)c2)nc2cc(C(=O)N3CCN(C(=O)[C@@H]4CCS(=O)(=O)N4)CC3(C)C)oc12 ?
Key: 33.9

Exercise: Fill in the blank: the reported IC50 of CC(C)(C)c1cc(C2CC3(CCC3)C2)nc2cc(C(=O)N3CCN(C(=O)[C@H]4COCCN4)CC3(C)C)oc12 is ____.
Key: 106
